tested.system: Metabotropic glutamate receptor 4 (Homo sapiens)
Sequence (Q14833 whole entry): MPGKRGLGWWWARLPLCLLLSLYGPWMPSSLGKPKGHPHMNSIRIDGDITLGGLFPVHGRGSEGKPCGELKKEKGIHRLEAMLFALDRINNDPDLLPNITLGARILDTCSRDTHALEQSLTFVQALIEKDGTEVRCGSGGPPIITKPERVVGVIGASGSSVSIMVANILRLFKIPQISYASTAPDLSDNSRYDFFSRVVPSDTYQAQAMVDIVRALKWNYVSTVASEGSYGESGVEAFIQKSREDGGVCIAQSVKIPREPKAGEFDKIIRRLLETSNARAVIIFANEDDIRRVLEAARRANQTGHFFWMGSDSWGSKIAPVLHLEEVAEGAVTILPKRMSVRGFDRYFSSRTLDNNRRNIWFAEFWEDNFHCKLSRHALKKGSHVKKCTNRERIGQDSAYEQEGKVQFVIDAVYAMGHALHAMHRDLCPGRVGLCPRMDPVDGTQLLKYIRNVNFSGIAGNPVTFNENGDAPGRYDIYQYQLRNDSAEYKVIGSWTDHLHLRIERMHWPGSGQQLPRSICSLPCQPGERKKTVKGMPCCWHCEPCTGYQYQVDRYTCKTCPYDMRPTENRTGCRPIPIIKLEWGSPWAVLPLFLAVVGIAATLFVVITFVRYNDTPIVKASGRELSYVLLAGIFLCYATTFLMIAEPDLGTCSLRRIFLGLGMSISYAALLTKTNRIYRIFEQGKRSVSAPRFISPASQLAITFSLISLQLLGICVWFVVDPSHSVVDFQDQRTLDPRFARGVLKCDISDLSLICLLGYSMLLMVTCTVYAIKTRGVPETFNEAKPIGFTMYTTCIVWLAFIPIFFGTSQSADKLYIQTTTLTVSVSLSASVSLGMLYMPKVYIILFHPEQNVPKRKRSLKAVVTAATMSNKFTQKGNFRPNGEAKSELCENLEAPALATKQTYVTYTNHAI
procedure.details: Concentration for half maximal activation of metabotropic glutamate mGluR4a in human
experimental.readout: EC50 (nM)

• N[C@@H](CCP(=O)(O)O)C(=O)O = 200
• N[C@@H](COP(=O)(O)O)C(=O)O [DEXFOSFOSERINE] = 1300

---

As shown below, each of these compounds has a reported pEC50 value.
tested.system: Metabotropic glutamate receptor 8 (Mus musculus)
Sequence (P47743 whole entry): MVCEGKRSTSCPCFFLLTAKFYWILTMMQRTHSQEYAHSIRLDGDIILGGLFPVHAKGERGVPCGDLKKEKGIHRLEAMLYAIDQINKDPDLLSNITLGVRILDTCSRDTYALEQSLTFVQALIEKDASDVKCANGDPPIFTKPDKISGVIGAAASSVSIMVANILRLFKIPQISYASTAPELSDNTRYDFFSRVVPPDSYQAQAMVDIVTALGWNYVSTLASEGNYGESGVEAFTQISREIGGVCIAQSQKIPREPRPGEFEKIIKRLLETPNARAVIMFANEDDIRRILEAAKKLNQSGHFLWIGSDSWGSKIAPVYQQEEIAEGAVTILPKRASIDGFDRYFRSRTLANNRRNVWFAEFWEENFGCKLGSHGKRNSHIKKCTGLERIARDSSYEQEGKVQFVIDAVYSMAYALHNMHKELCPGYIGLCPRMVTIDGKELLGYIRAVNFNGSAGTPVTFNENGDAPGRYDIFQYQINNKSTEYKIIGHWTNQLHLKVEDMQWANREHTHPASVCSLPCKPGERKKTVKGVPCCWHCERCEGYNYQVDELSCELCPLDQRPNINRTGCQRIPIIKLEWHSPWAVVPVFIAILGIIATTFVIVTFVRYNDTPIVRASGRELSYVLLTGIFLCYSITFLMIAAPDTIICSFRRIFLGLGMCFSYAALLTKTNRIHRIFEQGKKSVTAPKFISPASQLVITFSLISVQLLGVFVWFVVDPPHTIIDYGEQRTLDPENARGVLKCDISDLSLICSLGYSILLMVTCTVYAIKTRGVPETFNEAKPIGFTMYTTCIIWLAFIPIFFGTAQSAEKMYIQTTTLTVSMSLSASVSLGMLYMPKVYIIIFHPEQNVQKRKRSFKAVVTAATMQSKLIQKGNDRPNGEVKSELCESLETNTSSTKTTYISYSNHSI
procedure.details: Concentration for half maximal activation of metabotropic glutamate mGluR8 in mouse
pEC50: −log10 of the molar value.
experimental.readout: pEC50

- N[C@@H](Cn1oc(=O)[nH]c1=O)C(=O)O [QUISQUALATE]: < 4.00
- N[C@@]1(C(=O)O)CC[C@@H](C(=O)O)C1: < 4.00
- N[C@H](C(=O)O)c1cc(=O)[nH]o1 [IBOTENIC ACID]: < 4.00

These entries and their values trace back to ChEMBL document CHEMBL1128305.
